- assay-method-text: Approximate solubility at 25° C. and 50° C. (visual)
- Format: physicochemical
- test-settings: methanol, 50 °C, organic solvent or mixture, thermodynamic from solid, Methanol, 50° C.; read-out: Solubility
value-kind: solubility

| molecule | value-kind | test-result |
| --- | --- | --- |
| CCN(C)S(=O)(=O)Nc1ccc(F)c(Oc2ccc3ncn([C@H]4COC5(CCN(C(=O)CC6(O)CCN(c7cc8c(cc7F)c(N7CCC(=O)NC7=O)nn8C)CC6)CC5)C4)c(=O)c3c2)c1C#N [Compound 1 Form A] | solubility | 5000 to 10000 µg/mL |

---

- assay-method-text: Solubility data for Compound 1 drug substance
- Format: physicochemical
- test-settings: simulated gastric fluid; pH 1.2 HCl/KCl solution, pH 1.17
value-kind: solubility (mg/mL)

| chemical-structure | value-kind | value-unit | test-result |
| --- | --- | --- | --- |
| CCN(C)S(=O)(=O)Nc1ccc(F)c(Oc2ccc3ncn([C@H]4COC5(CCN(C(=O)CC6(O)CCN(c7cc8c(cc7F)c(N7CCC(=O)NC7=O)nn8C)CC6)CC5)C4)c(=O)c3c2)c1C#N | solubility | mg/mL | 22.9 |

---

- assay-method-text: Approximate solubility at 25° C. and 50° C. (visual)
- Assay type: physicochemical
- test-settings: ethyl acetate, 50 °C, organic solvent or mixture, thermodynamic from solid, Ethyl acetate, 50° C.; read-out: Solubility
value-kind: solubility

| compound | test-result |
| --- | --- |
| CCN(C)S(=O)(=O)Nc1ccc(F)c(Oc2ccc3ncn([C@H]4COC5(CCN(C(=O)CC6(O)CCN(c7cc8c(cc7F)c(N7CCC(=O)NC7=O)nn8C)CC6)CC5)C4)c(=O)c3c2)c1C#N [Compound 1 Form A] | < 10000 µg/mL |

---

- assay-method-text: Approximate solubility at 25° C. and 50° C. (visual)
- Assay type: physicochemical
- test-settings: methanol, 25 °C, organic solvent or mixture, thermodynamic from solid, Methanol, 25° C.; read-out: Solubility
- Procedure: About 5 mg of Compound 1 Form A was weighed to a 2 mL glass vial. 20 μL aliquots of each solvent were added to dissolve the drug substance at 25° C. About 10 mg of Compound 1 Form A was weighed to a 2 mL glass vial. 20 μL aliquots of each solvent were added to dissolve the drug substance at 50° C. […] Approximate solubility was determined by visual observation. About 5 mg of Compound 1 Form B was weighed to a 2 mL glass vial. […] Approximate solubility was determined by visual observation.
value-kind: solubility

| compound | value-kind | test-result |
| --- | --- | --- |
| CCN(C)S(=O)(=O)Nc1ccc(F)c(Oc2ccc3ncn([C@H]4COC5(CCN(C(=O)CC6(O)CCN(c7cc8c(cc7F)c(N7CCC(=O)NC7=O)nn8C)CC6)CC5)C4)c(=O)c3c2)c1C#N [Compound 1 Form A] | solubility | ~3000 µg/mL |

---

- assay-method-text: Solubility data for Compound 1 drug substance
- Type: physicochemical
- test-settings: pH 8.9; Purified water, pH 8.90
value-kind: solubility (mg/mL)

| chemical-structure | value-kind | test-result |
| --- | --- | --- |
| CCN(C)S(=O)(=O)Nc1ccc(F)c(Oc2ccc3ncn([C@H]4COC5(CCN(C(=O)CC6(O)CCN(c7cc8c(cc7F)c(N7CCC(=O)NC7=O)nn8C)CC6)CC5)C4)c(=O)c3c2)c1C#N | solubility | 42.4 |

Origin of the recorded values: patent US20250289827A1
